The reported measurements were obtained from paper PMC10303384.

Experiment: Solubility classification in representative solvents (Vogel protocol)
Format: physicochemical
Details: acetone, organic solvent or mixture, thermodynamic from solid; 25 °C; test amount 0.1 g; Snyder polarity index 5.1; read-out: Solubility in Acetone
measure_name: solubility

CN(C/C=C/C#CC(C)(C)C)Cc1cccc2ccccc12 ... > 100 mg/mL
CN(C/C=C/C#CC(C)(C)C)Cc1cccc2ccccc12.O=C(O)/C=C/C(=O)O ... < 33.3 mg/mL
CN(C/C=C/C#CC(C)(C)C)Cc1cccc2ccccc12.O=C(O)c1ccccc1O ... > 100 mg/mL

Now for the compound whose solubility we want.
(Q) Please report the recorded solubility for CN(C/C=C/C#CC(C)(C)C)Cc1cccc2ccccc12.O=C(O)/C=C\C(=O)O .
(A) < 33.3 mg/mL

----------
Experiment: Solubility classification in representative solvents (Vogel protocol)
Type: physicochemical
Conditions: n-hexane, organic solvent or mixture, thermodynamic from solid; 25 °C; test amount 0.1 g; Snyder polarity index 0.0; read-out: Solubility in n-Hexane
Quick reference: solubility of the listed items.

CN(C/C=C/C#CC(C)(C)C)Cc1cccc2ccccc12.O=C(O)/C=C\C(=O)O ... < 33.3 mg/mL
CN(C/C=C/C#CC(C)(C)C)Cc1cccc2ccccc12.O=C(O)/C=C/C(=O)O ... < 33.3 mg/mL
CN(C/C=C/C#CC(C)(C)C)Cc1cccc2ccccc12 ... > 100 mg/mL

Now for the compound whose solubility we want.
(Q) Please report the recorded solubility for CN(C/C=C/C#CC(C)(C)C)Cc1cccc2ccccc12.O=C(O)c1ccccc1O .
(A) < 33.3 mg/mL

----------
Test: Solubility of saturated solutions by HPLC at 25 °C
Type: physicochemical
Settings: n-hexane, organic solvent or mixture, thermodynamic from solid, Table S1, read-out: Solubility, n-Hexane
Text: The filtrate was then passed through a 0.22 μm nylon membrane filter and subjected to HPLC analysis. Based on Wang’s report about the chromatographic parameters, modifications to the mobile phase ratio were made. The replicability of the results was ensured by performing each measurement in triplicate.
Quick reference: solubility at 15 min of the listed items.
Units required after the number.

CN(C/C=C/C#CC(C)(C)C)Cc1cccc2ccccc12.O=C(O)c1ccccc1O ... 0.502 µM
CN(C/C=C/C#CC(C)(C)C)Cc1cccc2ccccc12.O=C(O)/C=C\C(=O)O ... 0.234 µM

Now for the molecule whose solubility at 15 min we want.
(Q) Please report the recorded solubility at 15 min for CN(C/C=C/C#CC(C)(C)C)Cc1cccc2ccccc12.O=C(O)/C=C/C(=O)O .
(A) 70.9 µM

----------
Experiment: Solubility of saturated solutions by HPLC at 25 °C
Type: physicochemical
Conditions: chloroform, organic solvent or mixture, thermodynamic from solid, Table S1, read-out: Solubility, Chloroform
measure_name: solubility at 15 min (µM)
Write down the numeric answer in µM and omit the unit.

(Q) Please report the recorded solubility at 15 min for CN(C/C=C/C#CC(C)(C)C)Cc1cccc2ccccc12.O=C(O)/C=C/C(=O)O .
(A) 321

----------
Quick reference: solubility at 15 min of the listed items.
Test: Solubility of saturated solutions by HPLC at 25 °C
Type: physicochemical
Details: acetonitrile, organic solvent or mixture, thermodynamic from solid, Table S1, read-out: Solubility, Acetonitrile
Write down the numeric answer in µM and omit the unit.

CN(C/C=C/C#CC(C)(C)C)Cc1cccc2ccccc12.O=C(O)/C=C/C(=O)O ... 301

Now for the compound whose solubility at 15 min we want.
(Q) Please report the recorded solubility at 15 min for CN(C/C=C/C#CC(C)(C)C)Cc1cccc2ccccc12.O=C(O)/C=C\C(=O)O .
(A) 1490
